meta.source: ChEMBL document CHEMBL1121613

# target entity: Adrenergic receptor alpha (Homo sapiens) (UniProt P35348+P08913+P18825+P25100+P35368+P18089)
# experiment summary: Blocking activity towards Alpha adrenergic receptor of rabbit aortic tissue preparation was determined
# study conditions: Oryctolagus cuniculus; target entry is the homologue from another species
recorded endpoint: -Log KB

| molecule | -Log KB |
| --- | --- |
| C[C@H]1CN=C(Nc2c(Cl)cccc2Cl)N1 | 5.27 |
| c1ccc(CC2NC[C@@H](Cc3ccccc3)N2)cc1 (stereo partly drawn) | 4.98 |
| c1ccc(C[C@@H]2CN=C(Cc3cccc4ccccc34)N2)cc1 | 6.34 |
| c1ccc(C[C@H]2CN=C(Cc3cccc4ccccc34)N2)cc1 | 6.57 |
| C[C@@H]1CN=C(Cc2cccc3ccccc23)N1 | 5.6 |

Prompt line: Read off the recorded -Log KB for `C[C@@H]1CN=C(Nc2c(Cl)cccc2Cl)N1`
Response line: 5.08

Prompt line: Provide one value: measured -Log KB of c1ccc(CC2NC[C@H](Cc3ccccc3)N2)cc1 (stereo partly drawn)
Response line: 5

Prompt line: Quick one: give measured -Log KB for `C[C@H]1CN=C(Cc2cccc3ccccc23)N1`
Response line: 5.76
